test.description: Metabolic stability in human liver microsomes assessed as compound remaining at 5 uM by RP-HPLC
Assay type: ADME, Microsome
cond: read-out: Stability
# remaining at 5 µM annotations
Just the number in %, nothing appended.

The examples below pair each entry with its known result.
{"compound": "Cc1ccccc1CNC(=O)[C@H]1N(C(=O)[C@@H](O)[C@H](Cc2ccccc2)NC(=O)c2cccc(O)c2C)CSC1(C)C", "remaining at 5 µM (%)": 13}
{"compound": "Cc1cccc(C)c1OCC(=O)N[C@@H](Cc1ccccc1)[C@@H](O)C[C@H](Cc1ccccc1)NC(=O)[C@H](C(C)C)N1CCCNC1=O [LOPINAVIR]", "remaining at 5 µM (%)": 10}

Request: Quick one: remaining at 5 µM for COc1cccc(C[C@H](NC(=O)c2cccc(N)c2Cl)[C@H](O)C(=O)N2CSC(C)(C)[C@H]2C(=O)NCc2c(C)cccc2C)c1 ?
Result: 49
